The reader will find reported pIC50 values listed item by item below.
Molecular target: human 11β-HSD2 (Homo sapiens, UniProt P80365)
Sequence (P80365 1-405): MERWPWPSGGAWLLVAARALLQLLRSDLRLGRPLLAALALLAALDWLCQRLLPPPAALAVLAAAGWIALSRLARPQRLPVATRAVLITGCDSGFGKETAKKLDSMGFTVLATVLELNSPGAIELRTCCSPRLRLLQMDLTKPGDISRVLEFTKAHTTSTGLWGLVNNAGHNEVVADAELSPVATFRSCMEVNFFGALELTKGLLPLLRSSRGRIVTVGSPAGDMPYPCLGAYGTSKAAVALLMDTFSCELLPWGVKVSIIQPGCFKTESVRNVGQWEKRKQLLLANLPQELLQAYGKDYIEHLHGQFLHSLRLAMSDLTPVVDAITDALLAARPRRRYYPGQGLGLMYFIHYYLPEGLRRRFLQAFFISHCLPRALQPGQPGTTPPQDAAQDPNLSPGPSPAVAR
Assay: scintillation proximity assay (SPA), microsomes of HEK-293 cells transfected with human 11β-HSD2
Note: pIC50 values are expressed as the negative base-10 logarithm of concentration in M.

Cc1coc2c1C(=O)C(=O)c1c-2ccc2c1C=CCC2(C)C [Compound 13]
5.57
Cc1c(CN2CCN(C)CC2)oc2c1C(=O)C(=O)c1c-2ccc2c1CCCC2(C)C [Compound 29d]
5.60
Cc1coc2c1C(=O)C(=O)c1c-2ccc2c1C[C@@H](O)CC2(C)C [Compound 19]
5.57

// pIC50 lookup, key: CC1(C)C(=O)C=Cc2c1ccc1c2C(=O)C(=O)c2c(CO)coc2-1 [Compound 34] 5.72

And Cc1c(Br)oc2c1C(=O)C(=O)c1c-2ccc2c1C=CCC2(C)C [Compound 33] ? 5.92

----------
Molecular target: human 11β-HSD1 (Homo sapiens)
Experiment: scintillation proximity assay (SPA), microsomes of HEK-293 cells transfected with human 11β-HSD1
Details: read-out: Inhibitory ratio h-HSD1, at 1.0 μM; averages of three determinations
The reader will find reported inhibition at 1 µM values listed item by item below.
Write the value in % as a bare number.

Use the examples below as a reference point.
Cc1c[nH]c2c1C(=O)C(=O)c1c-2ccc2c1CCCC2(C)C
33.6
Cc1c(-c2ccnc3ccccc23)oc2c1C(=O)C(=O)c1c-2ccc2c1CCCC2(C)C [Compound 27e]
15.1
Cc1coc2c1C(=O)C(=O)c1c-2ccc2c1C=CCC2(C)C
67.4
Cc1coc2c1C(=O)C(=O)c1ccccc1-2
87.6
CC1(C)CCCc2c1ccc1c2C(=O)C(=O)c2c(CO)coc2-1
82
Cc1c(CN2CCN(C)CC2)oc2c1C(=O)C(=O)c1c-2ccc2c1CCCC2(C)C [Compound 29d]
67.3

// inhibition at 1 µM lookup, key: Cc1coc2c1C(=O)C(=O)c1c-2ccc2c1[C@H](O)[C@@H](O)CC2(C)C (racemic) [Compound 18a] 31.1

And Cc1coc2ccc(O)cc12 ? 10

----------
Target: human 11β-HSD1 (Homo sapiens, UniProt P28845)
Sequence (P28845 whole entry): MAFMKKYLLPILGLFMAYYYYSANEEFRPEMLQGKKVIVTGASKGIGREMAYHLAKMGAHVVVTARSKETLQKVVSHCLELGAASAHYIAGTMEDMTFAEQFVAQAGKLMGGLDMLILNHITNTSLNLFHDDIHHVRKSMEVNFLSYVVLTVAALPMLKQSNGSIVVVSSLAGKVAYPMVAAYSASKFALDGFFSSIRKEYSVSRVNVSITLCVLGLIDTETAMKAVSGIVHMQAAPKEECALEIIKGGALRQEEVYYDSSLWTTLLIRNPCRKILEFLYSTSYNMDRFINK
Assay: scintillation proximity assay (SPA), microsomes of HEK-293 cells transfected with human 11β-HSD1
Mark Satisfied only for IC50 values smaller than 100 nM; exact matches and larger values are Not satisfied.

Examples from the recorded data:
Cc1c(Br)oc2c1C(=O)C(=O)c1c-2ccc2c1C=CCC2(C)C [Compound 33]
Not satisfied
Cc1c(CN2CCCCC2)oc2c1C(=O)C(=O)c1c-2ccc2c1CCCC2(C)C [Compound 29b]
Satisfied
Cc1coc2c1C(=O)C(=O)c1c-2ccc2c1C=CCC2(C)C [Compound 13]
Not satisfied
Cc1c(CN2CCN(C)CC2)oc2c1C(=O)C(=O)c1c-2ccc2c1CCCC2(C)C [Compound 29d]
Not satisfied
CC(=O)OC1CCc2c(ccc3c2C(=O)C(=O)c2c(C)coc2-3)C1(C)C (centres unmarked) [Compound 16]
Not satisfied

Consider C[C@H]1COC2=C1C(=O)C(=O)c1c2ccc2c1CCCC2(C)C [Compound 2, cryptotanshinone] . Does its IC50 lie strictly below 100 nM? Satisfied

And Cc1c(CN(C)C)oc2c1C(=O)C(=O)c1c-2ccc2c1CCCC2(C)C [Compound 29a] ? Satisfied

And Cc1coc2c1C(=O)C(=O)c1c-2ccc2c1CCCC2(C)C [Compound 1, tanshinone IIA] ? Satisfied

And Cc1coc2c1C(=O)C(=O)c1c-2ccc2c1C[C@@H](O)CC2(C)C [Compound 19] ? Not satisfied

And CC1(C)CCCc2c1ccc1c2C(=O)C(=O)c2c-1oc(Cl)c2CO [Compound 32] ? Not satisfied

And Cc1coc2c1C(=O)C(=O)c1c-2ccc2c1C=CC(=O)C2(C)C [Compound 14] ? Not satisfied

And Cc1c(COCO)oc2c1C(=O)C(=O)c1c-2ccc2c1CCCC2(C)C [Compound 28a] ? Not satisfied

And CC1(C)CCCc2c1ccc1c2C(=O)C(=O)c2c(CNc3ccccc3)coc2-1 [Compound 31a] ? Not satisfied
